- protocolSummary: Plasma protein binding, equilibrium dialysis
- Assay type: in vitro ADME, human
- assayContext: human, plasma, pH 7.4, human plasma, 6 hours; read-out: % Unbound
measureName: fraction unbound at 6 h, 5 µM
// no unit, no text: just the number

Answer with reported fraction unbound at 6 h, 5 µM of `O=C(Nc1ccc(C(F)(F)F)cc1)N[C@H](Cc1ccccc1)C(=O)O`
0.0027

====

- protocolSummary: Metabolic stability in liver microsomes
- Format: in vitro ADME, rat
- assayContext: rat, liver microsomes; read-out: Scale-up CLint
measureName: CLint scaled at 1 µM

Answer with reported CLint scaled at 1 µM of `O=C(Nc1ccc(C(F)(F)F)cc1)N[C@H](Cc1ccccc1)C(=O)O`
< 18.3 mL/min/kg

====

Entries annotated with measured MIC
- Tested on: S. aureus ATCC 9144
- protocolSummary: MIC assay
- Format: cell-based, Staphylococcus aureus
- assayContext: Staphylococcus aureus, ATCC9144, lowest concentration with no visible growth; read-out: MIC (mM) S. aureus 9144
# unit: mM | format: bare number

# count of solved cases: 3
molecule="O=C(O)CNC(=O)Nc1ccc(C(F)(F)F)cc1 [SSA 1]" measurename=MIC experimentalresult=1.39
molecule="O=C(Nc1ccc(C(F)(F)F)cc1)N[C@H](Cc1ccccc1)C(=O)O [SSA 9]" measurename=MIC experimentalresult=0.174
molecule="CC(C)CC(NC(=O)Nc1ccc(C(F)(F)F)cc1)C(=O)O (stereo not shown) [SSA 3]" measurename=MIC experimentalresult=0.087

State MIC on S. aureus ATCC 9144. Entry: O=C(Nc1ccc(C(F)(F)F)cc1)N[C@@H](Cc1ccccc1)C(=O)O [SSA 7]
0.087
